- ASSAY_SUMMARY: Pharmacokinetic determination, rat IV/PO study
- Type: in vivo
- ASSAY_CONDITIONS: male, Sprague-Dawley, plasma, IV (5 mg/kg)
PARAMETER_MEASURED: Cmax (ng/mL)
Supply the numeric figure in ng/mL, leaving out any unit text.

For `CCn1cc(-c2ccnc(Nc3cccc(S(N)(=O)=O)c3)n2)c2cccnc21` , what is its reported Cmax? 963

###

- MEASURED_ON: CDK1/cyclinB (Homo sapiens, UniProt P06493)
- Construct: purchased Invitrogen PV3292
- Sequence (P06493 whole entry): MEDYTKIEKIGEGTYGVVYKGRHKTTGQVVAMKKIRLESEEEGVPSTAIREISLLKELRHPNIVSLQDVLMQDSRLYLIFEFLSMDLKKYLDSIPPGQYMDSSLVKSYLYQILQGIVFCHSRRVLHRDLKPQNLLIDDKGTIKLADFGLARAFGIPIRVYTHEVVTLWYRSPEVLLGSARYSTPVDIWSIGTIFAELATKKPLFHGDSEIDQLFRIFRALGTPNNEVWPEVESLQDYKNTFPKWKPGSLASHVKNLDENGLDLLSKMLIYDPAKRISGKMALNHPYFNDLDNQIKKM
- Sequence (P14635 whole entry partner): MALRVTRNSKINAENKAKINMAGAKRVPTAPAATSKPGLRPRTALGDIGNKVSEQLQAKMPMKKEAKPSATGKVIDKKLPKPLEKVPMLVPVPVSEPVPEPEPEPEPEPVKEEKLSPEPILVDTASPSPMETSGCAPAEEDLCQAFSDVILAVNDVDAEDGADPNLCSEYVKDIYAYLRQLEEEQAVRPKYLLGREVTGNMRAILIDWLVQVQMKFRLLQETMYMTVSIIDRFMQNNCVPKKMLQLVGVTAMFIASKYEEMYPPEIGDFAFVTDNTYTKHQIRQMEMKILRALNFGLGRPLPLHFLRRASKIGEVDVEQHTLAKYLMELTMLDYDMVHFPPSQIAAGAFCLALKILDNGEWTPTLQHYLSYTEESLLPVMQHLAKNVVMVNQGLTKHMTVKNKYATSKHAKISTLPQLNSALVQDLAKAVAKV
- ASSAY_SUMMARY: Z'-LYTE kinase assay CDK1/cyclinB
- Assay type: biochemical
- ASSAY_CONDITIONS: read-out: Kinase inhibition, IC50 CDK1B
- Experimental: Kinase assays. The compounds from the example above were tested for their ability to inhibit kinases. […] Reactions were terminated by addition of stop buffer, and fluorescence emission intensity ratio 445 nm/520 nm (excited at 400 nm) was quantified by VICTOR-3 Multilabel Reader (Perkin-Elmer, Waltham, Mass., USA). Phosphorylation was calculated from the emission ratio. IC50 was determined using Sigmoid curve-fitting software Origin 6.0 (MicroCal, LLC, Northampton, Mass., USA).
PARAMETER_MEASURED: IC50 (nM)
# unit: nM | format: bare number

Name the recorded IC50 for `CCCn1cc(-c2ccnc(Nc3cccc(O)c3)n2)c2cccnc21` . 1360

What IC50 value was documented for this compound, `CCn1cc(-c2ccnc(Nc3ccc(O)cc3)n2)c2ccccc21` ? 1210

Quick check: IC50 of `CCn1cc(-c2ccnc(Nc3ccc(O)cc3)n2)c2ccnc(Cl)c21` ? 190

###

- System: MDA-MB-231-luc
- ASSAY_SUMMARY: 72 h MTT cell viability MDA-MB-231-luc
- Type: cell-based
- ASSAY_CONDITIONS: Homo sapiens
Assignment: determine reported log10 of IC50 for the given compounds.
Short version: log10 scale, IC50, µM.

Would you mind telling me what log10 of IC50 value was observed for `CCCn1cc(-c2ccnc(Nc3cccc([N+](=O)[O-])c3)n2)c2cccnc21` ? 0.42

Bench note: what log10 of IC50 did `CCn1cc(-c2ccnc(Nc3cccc(C(N)=O)c3)n2)c2cccnc21` show? 0.93

Look up log10 of IC50 for this compound: `CCCn1cc(-c2ccnc(Nc3cccc(S(N)(=O)=O)c3)n2)c2nc(Cl)cc(C)c21` 0.11

Entry `CCn1cc(-c2ccnc(Nc3cccc(C#N)c3)n2)c2cccnc21` : reported log10 of IC50 = ? 0.67

Entry `CCCn1cc(-c2ccnc(Nc3ccc(O)cc3)n2)c2cccnc21` : reported log10 of IC50 = ? 0.77

Item under review: `CCCn1cc(-c2ccnc(Nc3cccc(S(N)(=O)=O)c3)n2)c2ccncc21` . Reported log10 of IC50? -1.52

Please give the measured log10 of IC50 for this compound: `Cn1cc(-c2ccnc(Nc3cccc(O)c3)n2)c2ccccc21` 0.80

Which value of log10 of IC50 has been reported for `CCCn1cc(-c2ccnc(Nc3ccc(S(N)(=O)=O)cc3)n2)c2nc(Cl)cc(C)c21` in the records? 0.31

Please look up its log10 of IC50: `CCCn1cc(-c2ccnc(Nc3ccc(C)c(S(=O)(=O)N4CCOCC4)c3)n2)c2ccncc21` -0.12

I have this compound here, `CCn1cc(-c2ccnc(Nc3cccc(S(N)(=O)=O)c3)n2)c2cccnc21` , and I need its recorded log10 of IC50. 0.52

Look up log10 of IC50: `CCn1cc(-c2ccnc(Nc3cccc(S(N)(=O)=O)c3)n2)c2ccnc(Cl)c21` -0.36

Which log10 of IC50 is reported for this compound? `Cn1cc(-c2ccnc(Nc3ccc(O)cc3)n2)c2ccccc21` 0.79

Query (compound): `CCCn1cc(-c2ccnc(Nc3cccc(O)c3)n2)c2cccnc21` ; field requested: log10 of IC50 0.72

###

- MEASURED_ON: CDK5/p35 (Homo sapiens)
- Construct: purchased Invitrogen PV3000
- Sequence (Q00535 whole entry): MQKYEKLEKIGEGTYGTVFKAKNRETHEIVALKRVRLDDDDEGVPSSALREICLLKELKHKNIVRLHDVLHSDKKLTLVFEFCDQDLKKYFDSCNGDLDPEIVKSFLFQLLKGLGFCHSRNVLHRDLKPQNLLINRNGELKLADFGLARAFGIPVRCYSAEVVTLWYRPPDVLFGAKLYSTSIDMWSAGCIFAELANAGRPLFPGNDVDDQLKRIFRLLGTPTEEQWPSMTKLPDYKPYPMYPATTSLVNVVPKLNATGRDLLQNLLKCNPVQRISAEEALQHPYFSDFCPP
- Sequence (Q15078 whole entry partner): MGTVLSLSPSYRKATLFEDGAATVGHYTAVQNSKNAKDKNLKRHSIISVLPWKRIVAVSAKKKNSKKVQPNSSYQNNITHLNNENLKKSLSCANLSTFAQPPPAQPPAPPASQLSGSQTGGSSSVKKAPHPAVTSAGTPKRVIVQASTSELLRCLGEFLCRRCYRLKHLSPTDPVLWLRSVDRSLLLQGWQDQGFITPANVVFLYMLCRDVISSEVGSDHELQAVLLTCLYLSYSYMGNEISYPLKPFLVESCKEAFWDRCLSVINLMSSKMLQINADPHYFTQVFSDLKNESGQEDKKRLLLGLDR
- ASSAY_SUMMARY: Z'-LYTE kinase assay CDK5/p35
- Format: biochemical
- ASSAY_CONDITIONS: read-out: Kinase inhibition, IC50 CDK5/p35
PARAMETER_MEASURED: pIC50
Please express pIC50 as -log10 of the molar concentration.

Given the entry CCn1cc(-c2ccnc(Nc3cccc(S(N)(=O)=O)c3)n2)c2cccnc21 [Compound 18] , report its measured pIC50. 6.57

What measured pIC50 goes with CCCn1cc(-c2ccnc(Nc3ccc(S(N)(=O)=O)cc3)n2)c2ccncc21 [Compound 112] ? 8.89

# query: pIC50 of entry CCCn1cc(-c2ccnc(Nc3cccc(O)c3)n2)c2cccnc21 [Compound 16] 5.63

Item under review: CCn1cc(-c2ccnc(Nc3cccc(O)c3)n2)c2ccnc(Cl)c21 [Compound 72] . Reported pIC50? 7.00

Which pIC50 is listed for CCCn1cc(-c2ccnc(Nc3cccc(S(N)(=O)=O)c3)n2)c2ccnc(Cl)c21 [Compound 96] ? 7.70

Field request: pIC50 | item: CCn1cc(-c2ccnc(Nc3ccc(O)cc3)n2)c2ccnc(Cl)c21 [Compound 70] 6.46

What does the record list as pIC50 for CCCn1cc(-c2ccnc(Nc3ccc(C)c(S(=O)(=O)N4CCOCC4)c3)n2)c2cccnc21 [Compound 24] ? 5.05

###

- Tested on: Eca-109 cells
- ASSAY_SUMMARY: 72 h MTT cytotoxicity assay Eca-109
- Format: cell-based
- ASSAY_CONDITIONS: Homo sapiens; Eca-109, 72 hrs
So I've got a bunch of compounds here, and I need their IC50 values.
Give just the numeric value; µM need not be written.

Return IC50 measured with Eca-109 cells given this compound: `CCCn1cc(-c2ccnc(Nc3cccc([N+](=O)[O-])c3)n2)c2cccnc21` 6.06

Field: IC50 (Eca-109 cells). Entry: `CCCn1cc(-c2ccnc(Nc3cccc(O)c3)n2)c2cccnc21` 12.9

What measured IC50 is associated with `Cn1cc(-c2ccnc(Nc3ccc(O)cc3)n2)c2ccccc21` on Eca-109 cells? 14.5

Can you look up IC50 on Eca-109 cells for `CCn1cc(-c2ccnc(Nc3cccc(S(N)(=O)=O)c3)n2)c2cccnc21` ? 11.7

Please state recorded IC50 (tested on Eca-109 cells) of `CCCn1cc(-c2ccnc(Nc3cccc(S(N)(=O)=O)c3)n2)c2cccnc21` 3.4

# value lookup — system Eca-109 cells, readout IC50, item `CCCn1cc(-c2ccnc(Nc3cccc(S(N)(=O)=O)c3)n2)c2ccncc21` 0.05

Form field: IC50 recorded for `CCCn1cc(-c2ccnc(Nc3ccc(O)cc3)n2)c2cccnc21` with Eca-109 cells (enter value) 20

Lookup: IC50 / Eca-109 cells / `CCCn1cc(-c2ccnc(Nc3cccc(S(N)(=O)=O)c3)n2)c2nc(Cl)cc(C)c21` 10.5

Form field - read-out: IC50; system: Eca-109 cells; submitted item: `CCCn1cc(-c2ccnc(Nc3ccc(S(N)(=O)=O)cc3)n2)c2nc(Cl)cc(C)c21` 3.7

Give Eca-109 cells IC50 for `Cn1cc(-c2ccnc(Nc3cccc(O)c3)n2)c2ccccc21` 14.2

Lab note: need IC50 with Eca-109 cells for entry `CCCn1cc(-c2ccnc(Nc3ccc(C)c(S(=O)(=O)N4CCOCC4)c3)n2)c2ccncc21` , please look it up. 3.52

Form field: IC50 recorded for `CCCn1cc(-c2ccnc(Nc3ccc(C)c(S(=O)(=O)N4CCOCC4)c3)n2)c2cccnc21` with Eca-109 cells (enter value) 5.3

Provide value of IC50 for this record tested with Eca-109 cells: `CCCn1cc(-c2ccnc(Nc3ccc(S(N)(=O)=O)cc3)n2)c2ccncc21` 0.01

###

- MEASURED_ON: CDK1/cyclinB (Homo sapiens)
- Construct: purchased Invitrogen PV3292
- ASSAY_SUMMARY: Z'-LYTE kinase assay CDK1/cyclinB
- Type: biochemical
- ASSAY_CONDITIONS: read-out: Kinase inhibition, IC50 CDK1B
Exercise: state measured IC50 for each of the molecules provided.
Return type: number; implicit unit µM.

Notebook entry, CDK1/cyclinB (Homo sapiens) assay: IC50 of CCn1cc(-c2ccnc(Nc3cccc(C#N)c3)n2)c2cccnc21 [Compound 20] = ? 7.01

What reported IC50 corresponds to CCn1cc(-c2ccnc(Nc3cccc(O)c3)n2)c2cccnc21 [Compound 13] on CDK1/cyclinB (Homo sapiens)? 1.18

Could you share what IC50 was measured for CCCn1cc(-c2ccnc(Nc3ccc(O)cc3)n2)c2cccnc21 [Compound 15] , tested on CDK1/cyclinB (Homo sapiens)? 1.67

Can you look up IC50 on CDK1/cyclinB (Homo sapiens) for CCCn1cc(-c2ccnc(Nc3ccc(C)c(S(=O)(=O)N4CCOCC4)c3)n2)c2cccnc21 [Compound 24] ? 5.19

API: value(readout= IC50, system= CDK1/cyclinB (Homo sapiens), query= CCn1cc(-c2ccnc(Nc3cccc(O)c3)n2)c2ccnc(Cl)c21 [Compound 72] ) 0.09

What measured IC50 is associated with Oc1ccc(Nc2nccc(-c3cn(Cc4ccccc4)c4ccccc34)n2)cc1 [Compound 10] on CDK1/cyclinB (Homo sapiens)? 2.36

Look up IC50 with CDK1/cyclinB (Homo sapiens) for this molecule: CCCn1cc(-c2ccnc(Nc3ccc(S(N)(=O)=O)cc3)n2)c2cccnc21 [Compound 23] 0.03

Please state recorded IC50 (tested on CDK1/cyclinB (Homo sapiens)) of CCn1cc(-c2ccnc(Nc3cccc(S(N)(=O)=O)c3)n2)c2ccnc(Cl)c21 [Compound 73] 0.18

Hello, the source for this data is patent US8309550B2, in case you need it.
